experimentalTarget: Factor XIa (Homo sapiens, UniProt P03951)
Sequence (P03951 388-625 limits assumed): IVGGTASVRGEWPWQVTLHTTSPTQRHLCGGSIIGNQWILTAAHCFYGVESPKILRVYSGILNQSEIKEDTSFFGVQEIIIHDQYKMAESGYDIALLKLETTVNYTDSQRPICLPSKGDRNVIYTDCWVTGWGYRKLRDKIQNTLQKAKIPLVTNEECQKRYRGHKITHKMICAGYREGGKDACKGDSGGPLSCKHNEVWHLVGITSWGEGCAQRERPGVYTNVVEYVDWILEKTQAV
Sequence (P03951 19-387 partner limits assumed): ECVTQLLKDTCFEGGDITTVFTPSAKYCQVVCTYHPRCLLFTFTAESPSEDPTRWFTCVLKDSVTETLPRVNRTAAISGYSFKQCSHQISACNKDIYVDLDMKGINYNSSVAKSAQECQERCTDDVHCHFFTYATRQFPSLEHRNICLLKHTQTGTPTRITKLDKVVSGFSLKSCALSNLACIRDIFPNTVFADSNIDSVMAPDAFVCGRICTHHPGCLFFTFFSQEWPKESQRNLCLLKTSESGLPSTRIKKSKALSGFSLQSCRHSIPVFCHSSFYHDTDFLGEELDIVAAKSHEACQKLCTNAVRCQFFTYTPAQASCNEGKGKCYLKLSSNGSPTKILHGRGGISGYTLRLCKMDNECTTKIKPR
assayExplanation: Factor XIa inhibition assay utilizing a fluorophore-quencher pair peptide substrate (FLINT)
Type: biochemical
conditionContext: cells that print μM themselves in the nM column; read-out: FXIa Ki
recordedEndpoint: Ki

compound	recordedEndpoint	reportedMeasurement
O=C1NC2(CC2)Cc2ccc(Cl)c(F)c2-c2cc(=O)n3c(c21)CC[C@H]3c1ncc(-c2ccn3c(Br)cnc3c2)[nH]1 (single isomer, unassigned)	Ki	> 5 µM
Nc1ccc(-c2cnc(C3CCc4c5c(cc(=O)n43)-c3c(ccc(Cl)c3F)-c3ccccc3NC5=O)[nH]2)c(F)n1 (single isomer, unassigned)	Ki	> 5 µM
Cn1cncc1-c1cnc([C@H]2CCc3c4c(cc(=O)n32)-c2c(ccc(Cl)c2F)CC2(CC2)NC4=O)[nH]1 (stereo in doubt)	Ki	> 5 µM

* * *

pIC50 overview
experimentalTarget: human plasma kallikrein (Homo sapiens, UniProt P03952)
Sequence (P03952 391-638 limits assumed): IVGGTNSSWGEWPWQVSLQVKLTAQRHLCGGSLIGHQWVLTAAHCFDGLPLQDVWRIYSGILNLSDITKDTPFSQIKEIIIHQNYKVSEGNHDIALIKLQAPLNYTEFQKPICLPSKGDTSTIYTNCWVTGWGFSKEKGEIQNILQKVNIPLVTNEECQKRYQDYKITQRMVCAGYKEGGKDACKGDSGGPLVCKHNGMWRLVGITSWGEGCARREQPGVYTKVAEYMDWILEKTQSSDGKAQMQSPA
Sequence (P03952 20-390 partner limits assumed): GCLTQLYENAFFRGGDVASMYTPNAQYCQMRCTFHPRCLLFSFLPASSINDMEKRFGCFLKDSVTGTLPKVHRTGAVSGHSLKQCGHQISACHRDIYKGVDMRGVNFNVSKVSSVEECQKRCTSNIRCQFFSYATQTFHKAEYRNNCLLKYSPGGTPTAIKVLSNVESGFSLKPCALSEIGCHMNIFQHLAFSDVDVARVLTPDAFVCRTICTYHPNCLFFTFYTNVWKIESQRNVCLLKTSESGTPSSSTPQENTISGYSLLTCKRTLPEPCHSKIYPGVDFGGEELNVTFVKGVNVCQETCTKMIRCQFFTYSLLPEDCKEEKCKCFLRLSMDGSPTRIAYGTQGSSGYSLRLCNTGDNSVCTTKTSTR
assayExplanation: Kallikrein inhibition assay utilizing a quenched AMC peptide substrate (FLINT)
conditionContext: 30 min preincubation, 50 μM Z-Gly-Pro-Arg-AMC, 2 nM kallikrein
pIC50: −log10 of the molar value.

compound	valueComparator	pIC50
O=C1NC2(CC2)Cc2ccc(Cl)c(F)c2-c2cc(=O)n3c(c21)CCC3c1ncc(-c2ccnc(CO)c2F)[nH]1 (stereo not shown)	=	6.10
O=C1NC2(CC2)Cc2ccc(Cl)c(F)c2-c2cc(=O)n3c(c21)CC[C@H]3c1ncc(-c2ccc3scnc3c2)[nH]1 (stereo in doubt)	<	5.00
CC1(C)Cc2ccc(Cl)c(F)c2-c2cc(=O)n3c(c2C(=O)N1)CC[C@H]3c1ncc(-c2ccc(N)nc2F)[nH]1 (single isomer, unassigned) [Compound 29]	=	6.46
COC(=O)Nc1ccc(-c2cnc(C(CC3CC3)n3cc4c(cc3=O)-c3c(ccc(Cl)c3F)CC3(CC3)NC4=O)[nH]2)cc1 (single isomer, unassigned)	=	5.27

* * *

log10(IC50) overview
experimentalTarget: Factor XIa (Homo sapiens)
assayExplanation: Factor XIa inhibition assay utilizing a fluorophore-quencher pair peptide substrate (FLINT)
Format: biochemical
conditionContext: 30 min preincubation, 5Fam-KLTRAETV-K5Tamra substrate 15 μM final, kinetic reads; read-out: FXIa IC50
recordedEndpoint: log10(IC50) (log10 of the value in nM)

compound	reportedMeasurement
Nc1ccc(-c2cnc([C@H]3CCc4c5c(cc(=O)n43)-c3c(ccc(Cl)c3F)CC3(CCCC3)NC5=O)[nH]2)c(F)n1 (stereo in doubt) [Compound 34]	1.53
O=C1NC2(CC2)Cc2ccc(Cl)c(F)c2-c2cc(=O)n3c(c21)CCC3c1ncc(-c2ccnc(CO)c2F)[nH]1 (stereo not drawn) [Compound 3]	1.18
O=C1NC2(CC2)Cc2ccc(Cl)c(F)c2-c2cc(=O)n3c(c21)CC[C@H]3c1ncc(-c2ccc3[nH]ccc3c2)[nH]1 (single isomer, unassigned) [Compound 13]	0.30
Nc1ccc(-c2cnc([C@@H]3CCc4c5c(cc(=O)n43)-c3c(ccc(Cl)c3F)CC3(CC3)NC5=O)[nH]2)c(Cl)n1 [Compound 52]	-0.70
Nc1ccc(-c2[nH]c(C3CCc4c5c(cc(=O)n43)-c3cc(Cl)ccc3CC3(CC3)NC5=O)nc2F)c(F)n1 (stereo not drawn) [Compound 1]	0.18
O=C1NC2(CC2)Cc2ccc(Cl)c(F)c2-c2cc(=O)n3c(c21)CC[C@H]3c1ncc(-c2ccc3cncn3c2)[nH]1 (stereo in doubt) [Compound 23]	0.85
Nc1ccc(-c2cnc([C@@H]3CCc4c5c(cc(=O)n43)-c3c(ccc(Cl)c3F)CC3(CCCC3)NC5=O)[nH]2)c(F)n1 (stereo in doubt) [Compound 35]	-0.40

* * *

experimentalTarget: Factor XIa (Homo sapiens, UniProt P03951)
assayExplanation: Factor XIa inhibition assay utilizing a fluorophore-quencher pair peptide substrate (FLINT)
Assay type: biochemical
conditionContext: cells that print μM themselves in the nM column; read-out: FXIa Ki
Ki overview

compound	Ki
Cn1nncc1-c1cnc([C@@H]2CCc3c4c(cc(=O)n32)-c2c(ccc(Cl)c2F)CCNC4=O)[nH]1 (stereo in doubt) [Compound 44]	> 5 µM
Cn1ncc(-c2cnc(C(CC3CC3)n3cc4c(cc3=O)-c3c(ccc(Cl)c3F)CC3(CC3)NC4=O)[nH]2)cc1=O (single isomer, unassigned) [Compound 58]	> 5 µM
Cn1cc(-c2cnc(C(CC3CC3)n3cc4c(cc3=O)-c3c(ccc(Cl)c3F)CC3(CC3)NC4=O)[nH]2)ccc1=O (single isomer, unassigned) [Compound 60]	~4.81 µM
COCCN1C(=O)c2c(cc(=O)n3c2CC[C@@H]3c2ncc(-c3ccc(N)nc3F)[nH]2)-c2c(ccc(Cl)c2F)CC12CC2 (stereo in doubt) [Compound 24]	> 5 µM

* * *

experimentalTarget: human plasma kallikrein (Homo sapiens, UniProt P03952)
assayExplanation: Kallikrein inhibition assay utilizing a quenched AMC peptide substrate (FLINT)
conditionContext: 30 min preincubation, 50 μM Z-Gly-Pro-Arg-AMC, 2 nM kallikrein
pIC50: −log10 of the molar value.

compound	valueComparator	pIC50
Cn1cncc1-c1cnc([C@H]2CCc3c4c(cc(=O)n32)-c2c(ccc(Cl)c2F)CC2(CC2)NC4=O)[nH]1 (stereo in doubt)	<	5.00
O=C1NC2(CC2)Cc2ccc(Cl)c(F)c2-c2cc(=O)n3c(c21)CC[C@@H]3c1ncc(-c2ccn3cnnc3c2)[nH]1 (stereo in doubt)	=	6.09
Nc1ccc(-c2cnc([C@H]3CCc4c5c(cc(=O)n43)-c3c(ccc(Cl)c3F)CC3(CC3)N(CCO)C5=O)[nH]2)c(F)n1 (single isomer, unassigned) [Compound 12]	<	5.00
Nc1ccc(-c2cnc([C@H]3CCc4c5c(cc(=O)n43)-c3c(ccc(Cl)c3F)CCNC5=O)[nH]2)c(Cl)n1 (stereo in doubt)	=	6.68
O=C1NC2(CC2)Cc2ccc(Cl)c(F)c2-c2cc(=O)n3c(c21)CCC3c1ncc(-c2ccn3c(Br)cnc3c2)[nH]1 (single isomer, unassigned)	=	5.45
Cn1nncc1-c1cnc([C@H]2CCc3c4c(cc(=O)n32)-c2c(ccc(Cl)c2F)CC2(CC2)NC4=O)[nH]1 (stereo in doubt)	<	5.00

* * *

experimentalTarget: UniProt:P03951
assayExplanation: Factor XIa inhibition assay utilizing a fluorophore-quencher pair peptide substrate (FLINT)
Type: biochemical
conditionContext: cells that print μM themselves in the nM column; read-out: FXIa Ki
Ki overview
recordedEndpoint: Ki

compound	experimentalTarget	recordedEndpoint	reportedMeasurement
Nc1ccc(-c2cnc(C3CCc4c5c(cc(=O)n43)-c3c(ccc(Cl)c3F)-c3ccncc3NC5=O)[nH]2)c(F)n1 (single isomer, unassigned)	UniProt:P03951	Ki	~2.87 µM
CN1C(=O)c2c(cc(=O)n3c2CC[C@@H]3c2ncc(-c3ccc(N)nc3F)[nH]2)-c2c(ccc(Cl)c2F)CC12CC2 (stereo in doubt)	UniProt:P03951	Ki	> 5 µM
Cn1nncc1-c1cnc([C@H]2CCc3c4c(cc(=O)n32)-c2c(ccc(Cl)c2F)CC2(CC2)NC4=O)[nH]1 (stereo in doubt)	UniProt:P03951	Ki	> 5 µM

* * *

pIC50 overview
experimentalTarget: human plasma kallikrein (Homo sapiens, UniProt P03952)
assayExplanation: Kallikrein inhibition assay utilizing a quenched AMC peptide substrate (FLINT)
Type: biochemical
conditionContext: 30 min preincubation, 50 μM Z-Gly-Pro-Arg-AMC, 2 nM kallikrein
pIC50: −log10 of the molar value.
recordedEndpoint: pIC50

compound	experimentalTarget	reportedMeasurement
CC1(C)Cc2ccc(Cl)c(F)c2-c2cc(=O)n3c(c2C(=O)N1)CC[C@@H]3c1ncc(-c2ccc(N)nc2F)[nH]1 (single isomer, unassigned) [Compound 21]	human plasma kallikrein (Homo sapiens, UniProt P03952)	< 5.00
Cn1nncc1-c1cnc([C@@H]2CCc3c4c(cc(=O)n32)-c2c(ccc(Cl)c2F)CCNC4=O)[nH]1 (stereo in doubt)	human plasma kallikrein (Homo sapiens, UniProt P03952)	< 5.00
Nc1ccc(-c2cnc([C@H]3CCc4c5c(cc(=O)n43)-c3c(ccc(Cl)c3F)CC3(CC3)NC5=O)[nH]2)c(Cl)n1 (stereo in doubt)	human plasma kallikrein (Homo sapiens, UniProt P03952)	< 5.00

* * *

pIC50 overview
experimentalTarget: UniProt P03951
assayExplanation: Factor XIa inhibition assay utilizing a fluorophore-quencher pair peptide substrate (FLINT)
Format: biochemical
conditionContext: 30 min preincubation, 5Fam-KLTRAETV-K5Tamra substrate 15 μM final, kinetic reads; read-out: FXIa IC50
pIC50: −log10 of the molar value.
recordedEndpoint: pIC50

compound	reportedMeasurement
Nc1ccc(-c2cnc([C@H]3CCc4c5c(cc(=O)n43)-c3c(ccc(Cl)c3F)CC3(CC3)NC5=O)[nH]2)c(Cl)n1 (stereo in doubt)	7.02
Cn1nncc1-c1cnc([C@@H]2CCc3c4c(cc(=O)n32)-c2c(ccc(Cl)c2F)CC2(CC2)NC4=O)[nH]1 (stereo in doubt)	6.03
Cn1cncc1-c1cnc([C@@H]2CCc3c4c(cc(=O)n32)-c2c(ccc(Cl)c2F)CC2(CC2)NC4=O)[nH]1 (stereo in doubt)	6.52
O=C1NC2(CC2)Cc2ccc(Cl)c(F)c2-c2cc(=O)n3c(c21)CC[C@@H]3c1ncc(-c2ccc3[nH]cnc3c2)[nH]1 (stereo in doubt)	9.22
COCCN1C(=O)c2c(cc(=O)n3c2CC[C@H]3c2ncc(-c3ccc(N)nc3F)[nH]2)-c2c(ccc(Cl)c2F)CC12CC2 (stereo in doubt)	6.58
O=C1NC2(CC2)Cc2ccc(Cl)c(F)c2-c2cc(=O)n([C@@H](CC3CC3)c3ncc(-c4ccncc4)[nH]3)cc21 (single isomer, unassigned)	7.89

Numbers sourced from patent US11897880B2.
